system: P. mirabilis 08103; assay: Antibacterial activity (MIC), standard method of the Japanese Society of Chemotherapy; assay type: cell-based; details: Proteus mirabilis
measurement_label: MIC (µg/mL)

{"compound": "O=C(O)c1cn(C2CC2)c2cc(N3CCNCC3)c(F)cc2c1=O [CPFX, ciprofloxacin, reference compound]", "readout_units": "µg/mL", "numeric_readout": 0.012}
{"compound": "COc1c(N2C[C@H]3[C@@H](C)C[C@@]3(N)C2)c(F)cc2c(=O)c(C(=O)O)cn([C@@H]3C[C@@H]3F)c12", "readout_units": "µg/mL", "numeric_readout": 0.012}
{"compound": "COc1c(N2CC3(N)CCC4CC43C2)c(F)cc2c(=O)c(C(=O)O)cn([C@@H]3C[C@@H]3F)c12 (single isomer, unassigned)", "readout_units": "µg/mL", "numeric_readout": 0.05}

====

tested on: S. pneumoniae 104835
# log10 MIC listing for each entry below
measurement_label: log10 MIC (log10 of the value in µg/mL)

{"molecule": "COc1c(N2C[C@@H]3COCC[C@@]3(N)C2)c(F)cc2c(=O)c(C(=O)O)cn([C@@H]3C[C@@H]3F)c12", "log10 MIC": -0.41}
{"molecule": "COc1c(N2C[C@@H]3CCC[C@]3(N)C2)c(F)cc2c(=O)c(C(=O)O)cn([C@@H]3C[C@@H]3F)c12 (single isomer, unassigned)", "log10 MIC": -0.41}
{"molecule": "Cc1c(N2C[C@]3(N)CCC[C@]3(F)C2)c(F)cc2c(=O)c(C(=O)O)cn([C@@H]3C[C@@H]3F)c12", "log10 MIC": -1.00}
{"molecule": "COc1c(N2C[C@H]3[C@@H](C)C[C@@]3(N)C2)c(F)cc2c(=O)c(C(=O)O)cn([C@@H]3C[C@@H]3F)c12", "log10 MIC": -1.00}
{"molecule": "COc1c(N2CC3=CCCC3(N)C2)c(F)cc2c(=O)c(C(=O)O)cn([C@@H]3C[C@@H]3F)c12 (single isomer, unassigned)", "log10 MIC": -0.41}
{"molecule": "COc1c(N2C[C@@H]3CCCC[C@@]3(N)C2)c(F)cc2c(=O)c(C(=O)O)cn([C@@H]3C[C@@H]3F)c12", "log10 MIC": -0.70}
{"molecule": "COc1c(N2C[C@@H]3CCOC[C@@]3(N)C2)c(F)cc2c(=O)c(C(=O)O)cn([C@@H]3C[C@@H]3F)c12", "log10 MIC": -0.11}
{"molecule": "COc1c(N2C[C@H]3CC=C[C@@]3(N)C2)c(F)cc2c(=O)c(C(=O)O)cn([C@@H]3C[C@@H]3F)c12", "log10 MIC": -0.41}
{"molecule": "C[C@H]1COc2c(N3C[C@@H]4CCCC[C@@]4(N)C3)c(F)cc3c(=O)c(C(=O)O)cn1c23", "log10 MIC": -0.41}
{"molecule": "COc1c(N2C[C@@H]3CCCN[C@@H]3C2)c(F)cc2c(=O)c(C(=O)O)cn(C3CC3)c12 [MXFX, moxifloxacin, reference compound]", "log10 MIC": 0.50}
{"molecule": "COc1c(N2C[C@@H]3CC=CC[C@@]3(N)C2)c(F)cc2c(=O)c(C(=O)O)cn([C@@H]3C[C@@H]3F)c12", "log10 MIC": -0.41}
{"molecule": "COc1c(N2C[C@H]3C4(CC4)C[C@@]3(N)C2)c(F)cc2c(=O)c(C(=O)O)cn([C@@H]3C[C@@H]3F)c12", "log10 MIC": -0.70}
